assay: logD by shake flask method (octanol / PBS pH 7.4, HPLC); type: physicochemical; conditions: octanol / PBS pH 7.4, shake flask
Assign logD to each entry below.

Field: logD. Fill in for each record below.
1. Cc1c(C(=O)N[C@@H](CCC(=O)C(=O)NC2CC2)C(=O)Nc2cccn(CC(=O)NC3C4CC5CC(C4)CC3C5)c2=O)oc2ccccc12 (some centres unmarked)
2. CNC(=O)C(=O)CC[C@H](NC(=O)c1coc(S(N)(=O)=O)c1)C(=O)Nc1cccn(CC(=O)NC2C3CC4CC2CC(NC(C)=O)(C4)C3)c1=O (some centres unmarked)
3. CNC(=O)C(=O)CC[C@H](NC(=O)c1snnc1C1CC1)C(=O)Nc1cccn(CC(=O)NC23CC(C2)C3)c1=O
4. O=C(Cn1cccc(NC(=O)[C@H](CCC(=O)C(=O)NC2CCCC2)NC(=O)c2cnc3ccc(OC(F)(F)F)cc3c2O)c1=O)N[C@@H]1C[C@@H]2CC[C@H]1C2
5. CNC(=O)C(=O)CC[C@H](NC(=O)c1snnc1C=O)C(=O)Nc1cccn(CC(=O)NC2C3CC4CC(C3)CC2C4)c1=O (some centres unmarked)
6. CNC(=O)C(=O)CC[C@H](NC(=O)c1cnsn1)C(=O)Nc1cccn(CC(=O)NC2C3CC4CC(C3)CC2C4)c1=O (some centres unmarked)
7. CNC(=O)C(=O)CC[C@H](NC(=O)c1oc2ccccc2c1C)C(=O)Nc1cccn(CC(=O)N[C@@H]2C[C@H]3CC[C@@H]2C3)c1=O

-- reply
1. 3 to 5
2. < 1
3. < 1
4. 3 to 5
5. < 1
6. 1 to 3
7. 1 to 3

* * *

Give measured IC50 for each item. Keep answers brief.
biological target: recombinant human transglutaminase 2 (Homo sapiens); construct: purchased Zedira T022; assay: Transglutaminase assay (DCC-assay): incorporation of dansylcadaverine into dimethylcasein; type: biochemical; settings: recombinant human TG2 10 nM; dansylcadaverine incorporation into dimethylcasein; read-out: IC50 TG2
Sequence (P21980 whole entry): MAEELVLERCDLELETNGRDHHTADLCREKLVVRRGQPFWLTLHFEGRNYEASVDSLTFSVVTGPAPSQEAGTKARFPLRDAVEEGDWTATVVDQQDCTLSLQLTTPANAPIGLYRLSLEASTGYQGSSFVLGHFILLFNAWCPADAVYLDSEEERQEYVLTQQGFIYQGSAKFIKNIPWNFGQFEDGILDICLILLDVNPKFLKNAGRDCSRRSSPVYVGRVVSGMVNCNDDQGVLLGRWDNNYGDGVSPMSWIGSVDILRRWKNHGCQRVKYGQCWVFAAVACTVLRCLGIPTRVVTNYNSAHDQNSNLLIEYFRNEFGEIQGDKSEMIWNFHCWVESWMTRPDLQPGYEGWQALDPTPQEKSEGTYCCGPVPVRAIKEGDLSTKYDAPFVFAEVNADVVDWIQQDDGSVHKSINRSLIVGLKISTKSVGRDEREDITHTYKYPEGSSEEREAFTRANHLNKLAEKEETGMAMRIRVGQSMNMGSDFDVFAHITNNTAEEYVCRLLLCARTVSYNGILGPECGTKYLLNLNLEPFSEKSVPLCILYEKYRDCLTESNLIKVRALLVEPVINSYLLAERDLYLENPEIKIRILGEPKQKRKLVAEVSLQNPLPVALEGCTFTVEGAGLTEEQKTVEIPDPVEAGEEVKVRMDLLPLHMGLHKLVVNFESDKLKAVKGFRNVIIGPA

# annotated cases, reported IC50 shown
-- ask Give IC50 only, for CNC(=O)C(=O)CC[C@H](NC(=O)[C@H]1COCCN1)C(=O)Nc1cccn(CC(=O)NC2C3CC4CC(C3)CC2C4)c1=O (stereo partly shown) [II-60] , using recombinant human transglutaminase 2 (Homo sapiens) data.
-- reply 40 to 400 nM

-- ask Give measured IC50 for CNC(=O)C(=O)CC[C@H](NC(=O)c1ncc(OC)o1)C(=O)Nc1cccn(CCC(=O)NC2C3CC4CC(C3)CC2C4)c1=O (stereo partly shown) [II-166] (recombinant human transglutaminase 2 (Homo sapiens)).
-- reply 400 to 2500 nM

-- ask For recombinant human transglutaminase 2 (Homo sapiens), give IC50 of the listed molecule: CNC(=O)C(=O)CC[C@H](NC(=O)c1sc(C(F)(F)F)nc1C)C(=O)Nc1cccn(CC(=O)N[C@H]2C[C@H]3CC[C@]2(C)C3(C)C)c1=O [II-159]
-- reply 40 to 400 nM

-- ask Enter IC50 (test system recombinant human transglutaminase 2 (Homo sapiens)) for CCC12CC3CC(C1)C(NC(=O)Cn1cccc(NC(=O)[C@H](CCC(=O)C(=O)NC)NC(=O)c4ccc5cnccc5n4)c1=O)C(C3)C2 (stereo partly shown) [II-187]
-- reply 400 to 2500 nM

-- ask Report its IC50 with recombinant human transglutaminase 2 (Homo sapiens) as the test system: CNC(=O)C(=O)CC[C@H](NC(=O)c1cncc([N+](=O)[O-])c1)C(=O)Nc1cccn(CC(=O)NC2C3CC4CC(C3)CC2C4)c1=O (stereo partly shown) [II-63]
-- reply < 40 nM

Hi team, please reply with IC50 for each item in this list.
1. CNC(=O)C(=O)CC[C@H](NC(=O)c1csc(Cl)n1)C(=O)Nc1cccn(CC(=O)NC2C3CC4CC(C3)CC2C4)c1=O (stereo partly shown) [II-36]
2. CNC(=O)C(=O)CC[C@H](NC(=O)c1cnsn1)C(=O)Nc1cccn(CC(=O)NC2C3CC4CC(C3)CC2C4)c1=O (stereo partly shown) [II-142]
3. O=C(Cn1cccc(NC(=O)[C@H](CCC(=O)C(=O)NC2CCCC2)NC(=O)c2cn3ccsc3n2)c1=O)N[C@@H]1C[C@@H]2CC[C@H]1C2 [II-179]

-- reply
["40 to 400 nM", "40 to 400 nM", "400 to 2500 nM"]

// for each molecule in input: emit IC50
1. CNC(=O)C(=O)CC[C@H](NC(=O)c1oc2ccccc2c1C)C(=O)Nc1cccn(CC(=O)NC23CCC(CC2)C3)c1=O [II-95]
2. CNC(=O)C(=O)CC[C@H](NC(=O)c1cc2cc(Br)ccc2s1)C(=O)Nc1cccn(CC(=O)NC2C3CC4CC(C3)CC2C4)c1=O (stereo partly shown)

-- reply
1. 40 to 400 nM
2. < 40 nM
